Entries annotated with measured growth inhibition (GI)
- Tested on: SW-620
- test_protocol: Cytotoxicity against human SW620 cells after 48 hrs by SRB assay
- Type: functional
The figure you give is taken to be in %; do not add the unit.

Task: State recorded growth inhibition (GI) with SW-620, entry O=C1c2nc[nH]c2C(=O)N1Cc1ccncc1 , no comment.
Output: 43

Task: State recorded growth inhibition (GI) with SW-620, entry O=C1Cc2ccccc2CC(=O)N1Cc1cccs1 , no comment.
Output: 52

Task: State recorded growth inhibition (GI) with SW-620, entry O=C1c2ccncc2C(=O)N1Cc1ccco1 , no comment.
Output: 45

Task: State recorded growth inhibition (GI) with SW-620, entry O=C1c2nc[nH]c2C(=O)N1Cc1ccccn1 , no comment.
Output: 33

Task: State recorded growth inhibition (GI) with SW-620, entry O=C1Cc2ccccc2CC(=O)N1Cc1cccnc1 , no comment.
Output: 22

Task: State recorded growth inhibition (GI) with SW-620, entry O=C1c2nccnc2C(=O)N1Cc1ccco1 , no comment.
Output: 12

Task: State recorded growth inhibition (GI) with SW-620, entry O=C1c2ccncc2C(=O)N1Cc1ccncc1 , no comment.
Output: 20

Task: State recorded growth inhibition (GI) with SW-620, entry O=C1c2nccnc2C(=O)N1Cc1ccncc1 , no comment.
Output: 36

Task: State recorded growth inhibition (GI) with SW-620, entry O=C1c2nccnc2C(=O)N1CCN1CCCCC1 , no comment.
Output: 9

Task: State recorded growth inhibition (GI) with SW-620, entry O=C1Cc2ccccc2CC(=O)N1Cc1ccccn1 , no comment.
Output: 37

Task: State recorded growth inhibition (GI) with SW-620, entry O=C1c2nccnc2C(=O)N1Cc1cccs1 , no comment.
Output: 46

Task: State recorded growth inhibition (GI) with SW-620, entry O=C1c2ccncc2C(=O)N1CCN1CCCCC1 , no comment.
Output: 0

Task: State recorded growth inhibition (GI) with SW-620, entry O=C1Cc2ccccc2CC(=O)N1CCN1CCCCC1 , no comment.
Output: 45

Task: State recorded growth inhibition (GI) with SW-620, entry O=C1c2nccnc2C(=O)N1Cc1ccccn1 , no comment.
Output: 33

Task: State recorded growth inhibition (GI) with SW-620, entry O=C1c2ccncc2C(=O)N1Cc1cccs1 , no comment.
Output: 53

====

- System: HEp-2
- test_protocol: Cytotoxicity against human Hep2 cells after 48 hrs by SRB assay
- Type: functional
readout_type: growth inhibition (GI) (%)
The figure you give is taken to be in %; do not add the unit.

Example compounds with recorded growth inhibition (GI):
• O=C1c2nc[nH]c2C(=O)N1Cc1cccs1 = 15
• O=C1c2nc[nH]c2C(=O)N1CCN1CCCCC1 = 18
• O=C1Cc2ccccc2CC(=O)N1Cc1ccccn1 = 11
• O=C1c2nc[nH]c2C(=O)N1Cc1ccccn1 = 17
• O=C1Cc2ccccc2CC(=O)N1Cc1cccnc1 = 6

Task: Determine from records and report growth inhibition (GI) for O=C1c2nccnc2C(=O)N1CCN1CCCCC1
Output: 12

Task: Determine from records and report growth inhibition (GI) for O=C1c2nccnc2C(=O)N1Cc1ccncc1
Output: 11

Task: Determine from records and report growth inhibition (GI) for O=C1c2nccnc2C(=O)N1Cc1ccccn1
Output: 16

Task: Determine from records and report growth inhibition (GI) for O=C1c2ccncc2C(=O)N1Cc1ccccn1
Output: 24

====

- System: HEp-2
- test_protocol: Cytotoxicity against human Hep2 cells after 48 hrs by SRB assay
- Format: functional
Entries annotated with measured growth inhibition (GI)
The figure you give is taken to be in %; do not add the unit.

Example compounds with recorded growth inhibition (GI):
• O=C1Cc2ccccc2CC(=O)N1Cc1cccs1 = 19
• O=C1Cc2ccccc2CC(=O)N1Cc1ccco1 = 17
• O=C1c2nccnc2C(=O)N1Cc1cccs1 = 16
• O=c1[nH]cc(F)c(=O)[nH]1 = 40

Task: Determine from records and report growth inhibition (GI) for O=C1c2ccncc2C(=O)N1Cc1cccs1
Output: 24

Task: Determine from records and report growth inhibition (GI) for O=C1c2nc[nH]c2C(=O)N1Cc1ccncc1
Output: 26

====

- Tested on: SW-620
- test_protocol: Cytotoxicity against human SW620 cells after 48 hrs by SRB assay
- Type: functional
// label = yes if growth inhibition (GI) is not less than 20%, otherwise no

Task: Is growth inhibition (GI) at least 20%? Consider O=C1c2nc[nH]c2C(=O)N1Cc1cccs1
Output: yes

Task: Is growth inhibition (GI) at least 20%? Consider O=C1c2nc[nH]c2C(=O)N1CCN1CCCCC1
Output: no

Task: Is growth inhibition (GI) at least 20%? Consider CO[C@@]12[C@H](COC(N)=O)C3=C(C(=O)C(C)=C(N)C3=O)N1C[C@@H]1N[C@@H]12
Output: yes

====

- Tested on: HEp-2
- test_protocol: Cytotoxicity against human Hep2 cells after 48 hrs by SRB assay
- Assay type: functional
readout_type: growth inhibition (GI) (%)
The figure you give is taken to be in %; do not add the unit.

Example compounds with recorded growth inhibition (GI):
* CO[C@@]12[C@H](COC(N)=O)C3=C(C(=O)C(C)=C(N)C3=O)N1C[C@@H]1N[C@@H]12 | 60
* O=C1c2ccncc2C(=O)N1Cc1ccncc1 | 12
* O=C1c2nccnc2C(=O)N1Cc1ccco1 | 11
* O=C1c2ccncc2C(=O)N1CCN1CCCCC1 | 13
* O=C1Cc2ccccc2CC(=O)N1CCN1CCCCC1 | 15

Task: Determine from records and report growth inhibition (GI) for O=C1c2ccncc2C(=O)N1Cc1ccco1
Output: 8

====

Entries annotated with measured growth inhibition (GI)
- System: SW-620
- test_protocol: Cytotoxicity against human SW620 cells after 48 hrs by SRB assay
- Format: functional
The figure you give is taken to be in %; do not add the unit.

Task: Determine from records and report growth inhibition (GI) for O=C1c2ccncc2C(=O)N1Cc1ccccn1
Output: 33

Task: Determine from records and report growth inhibition (GI) for O=c1[nH]cc(F)c(=O)[nH]1 [FLUOROURACIL]
Output: 44

Task: Determine from records and report growth inhibition (GI) for O=C1Cc2ccccc2CC(=O)N1Cc1ccco1
Output: 17
